B1: TPR 5TU (parent)
chain: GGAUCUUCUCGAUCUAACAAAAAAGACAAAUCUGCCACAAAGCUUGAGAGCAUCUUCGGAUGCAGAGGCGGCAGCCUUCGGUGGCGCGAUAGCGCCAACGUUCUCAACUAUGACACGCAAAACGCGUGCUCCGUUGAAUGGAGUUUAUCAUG

# Variants of: B1
# procedure.details: polymerase ribozyme fitness, log enrichment relative to wild type (log ratio); higher = more active; in vitro selection for triplet polymerase activity
Fewer inactive variants are shown than the library holds.
Label rule, in plain words: polymerase ribozyme fitness (log ratio) of -2 and up is true, under -2 is false.

1) C87U A98G A106G | true
2) A29U C76G G84U C96A A122U U144A | false
3) G48U A73G A122C U146C | true
4) A17U C54A G92U C149U | false
5) A21C C32G G48A A122G G126U | false
6) A24C G67C G92U C99U U109G A110U | false
7) G50C U56A U78A G83A G94U C95A | false
8) G83C U145G | true
9) A17G A39C G68C C93G | false
10) G84U G92A | false
11) C5G A22U G58U A60U A64U G83C | false
12) C8U C96G | false
13) U55A G83U | true
14) A49C C79A C108U C123A | false
15) A17C G133A U144A A147C | false
16) A52C G58A A147U | true
17) C5G C36U C96G | false
18) C35G C85A C105G A113U | false
19) A19U C32A G84A G128U C131U A137G | false
20) C5A C57U G81C G94C C108A G143C | false
21) A20C C36U C85G C103G | false
22) U56A G92A U148G | false
23) U56A U61A C76G G84A C103G | false
24) U13G G83U C105U G117C U148A | false
25) G48A C85A C123U U134C | true
26) U6G C114A | false
27) C54U G58A | true
28) A29C G94A A110U G124A A147U | false
29) A3U C51U C95U | true
30) A12G C69G A89U C96G U104A | false
31) U9C G71A C95U U151C | false
32) A20C A23U A29U G92A A110U U139G A142G U144G | false
33) U13A A52G G68C G80A U82G C95G C105U C114A U145G | false
34) A19C C27G G70A C76U G94U C103U A120U C129A U148C | false
35) C43G G83C | false
36) A28C A39U C103U C116G U139G | false
37) U53G G58C U82G A138C U151A | false
38) A89U C93U C125U U127A A142U C149U | false
39) C85A A142C | false
40) A39C G92U C95A G112A U145G | false
41) U13G U90G | false
42) A49U G50A G84A C95G U146C | true
43) A29G U90G A122U A142U C149G | false
